Hello, the source for this data is patent US20060025342A1, in case you need it.

Molecular target: T1, human PTH/PTHrP receptor (PTH1 receptor) (human, UniProt Q03431 27-593)
T1 sequence (looked up): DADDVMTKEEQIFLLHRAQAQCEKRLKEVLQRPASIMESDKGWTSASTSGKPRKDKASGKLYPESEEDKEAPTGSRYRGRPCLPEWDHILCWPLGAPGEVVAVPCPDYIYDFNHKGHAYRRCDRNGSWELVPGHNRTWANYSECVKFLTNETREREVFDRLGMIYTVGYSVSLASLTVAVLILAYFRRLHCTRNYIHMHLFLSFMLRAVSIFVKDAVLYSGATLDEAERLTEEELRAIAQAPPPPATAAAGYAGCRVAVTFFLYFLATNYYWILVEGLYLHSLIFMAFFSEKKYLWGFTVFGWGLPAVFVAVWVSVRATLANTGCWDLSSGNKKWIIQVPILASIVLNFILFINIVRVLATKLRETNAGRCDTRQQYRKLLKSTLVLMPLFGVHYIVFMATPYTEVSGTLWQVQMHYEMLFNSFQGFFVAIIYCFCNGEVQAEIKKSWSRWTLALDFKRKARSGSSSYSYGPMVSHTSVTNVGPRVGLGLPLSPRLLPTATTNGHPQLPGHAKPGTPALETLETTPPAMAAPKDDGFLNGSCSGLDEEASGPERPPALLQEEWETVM
Experiment: cell-based or functional assay
Non-standard residues stand in square brackets, D forms with d. No end group written: not given here. Nle = CCCC[C@H](N)C(=O)O
attribute.measured: Adenylate cyclase (EC50), kidney membranes (human RCM) (nM)

- binder: "SVSEMQLMHNLGEHRHTVERQDWLQMKLQDVHSA-NH2 (peptide, UniProt P15743 32-65, looked up, range 1-34; Solid phase synthesis; also called cPTH-(1-34)NH2) [Chicken PTH-(1-34)amide]"
  units.symbol: "nM"
  readout.value: 5.4
- binder: "bPTH-(1-84) (ligand, bovine, UniProt P01268 32-115, looked up, range 1-84; From the National Hormone and Pituitary Program (NIDDK); also called bovine PTH-(1-84)) AVSEIQFMHNLGKHLSSMERVEWLRKKLQDVHNFVALGASIAYRDGSSQRPRKKEDNVLVESHQKSLGEADKADVDVLIKAKPQ"
  units.symbol: "nM"
  readout.value: 0.59

1. AVSEIQLMHNLGKHLASVERMQWLRKKLQDVHNF (peptide, UniProt P04089 32-65, looked up, range 1-34; Synthetic, Bachem; also called rPTH-(1-34); rat (r)PTH-(1-34)) [rat PTH-(1-34)]
2. SVSEIQL[Nle]HNLGKHLNS[Nle]ERVEWLRKKLQDVHNY [(Nle^8,18, Tyr^34)hPTH-(1-34)]
Quick one: lower Adenylate cyclase (EC50), kidney membranes (human RCM), 1 or 2 ? Identify your selection by its label.
1
